The measured values listed here are drawn from paper PMC9168620.

# system_under_test: CaPGMC359S (Candida albicans, UniProt A0A1D8PSA9, C359S)
# test_description: G6PDH coupled assay for PGM, CaPGM C359S mutant
# protocol_conditions: 5 nM enzyme, no preincubation
pIC50: −log10 of the molar value.
observed_property: pIC50

{"smiles": "O=c1ccsn1-c1cccc(Cl)c1F", "system_under_test": "CaPGMC359S (Candida albicans, UniProt A0A1D8PSA9, C359S)", "result": "< 3.40"}

====

# system_under_test: HsPGM (Homo sapiens, UniProt P36871)
# Construct: Full length HsPGM; 6His-GST (N, cleaved yes); made in house; host or cells: E. coli BL21 (DE3) pLysS (same protocol as AfPGM)
# Sequence (P36871 1-562): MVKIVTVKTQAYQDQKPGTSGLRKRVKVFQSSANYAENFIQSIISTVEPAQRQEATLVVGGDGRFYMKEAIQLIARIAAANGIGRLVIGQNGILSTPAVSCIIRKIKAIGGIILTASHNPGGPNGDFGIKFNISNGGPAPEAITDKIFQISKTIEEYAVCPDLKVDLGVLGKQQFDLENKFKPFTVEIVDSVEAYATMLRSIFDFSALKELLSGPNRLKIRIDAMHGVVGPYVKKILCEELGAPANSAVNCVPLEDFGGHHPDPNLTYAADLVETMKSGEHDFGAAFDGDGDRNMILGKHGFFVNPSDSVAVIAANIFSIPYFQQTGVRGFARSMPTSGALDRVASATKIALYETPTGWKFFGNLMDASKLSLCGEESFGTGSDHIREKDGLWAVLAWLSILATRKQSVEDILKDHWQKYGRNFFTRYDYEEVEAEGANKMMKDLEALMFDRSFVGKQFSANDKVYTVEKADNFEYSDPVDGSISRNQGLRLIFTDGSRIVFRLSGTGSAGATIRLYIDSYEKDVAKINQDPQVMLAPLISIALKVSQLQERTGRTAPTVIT
# test_description: G6PDH coupled assay for PGM, HsPGM
# Type: biochemical
# protocol_conditions: HsPGM 5 nM, no preincubation; > values: highest concentration at which the compound can solubilize; read-out: IC50 HsPGM
pIC50: −log10 of the molar value.
observed_property: pIC50

{"smiles": "O=c1ccsn1-c1cccc2ccccc12", "observed_property": "pIC50", "result": "< 4.00"}
{"smiles": "O=c1ccsn1-c1cc(Cl)cc(Cl)c1F", "observed_property": "pIC50", "result": 5.00}
{"smiles": "O=C(OCc1ccccc1)c1ccc(-n2sccc2=O)cc1", "observed_property": "pIC50", "result": "< 4.00"}
{"smiles": "CC(C)OC(=O)c1ccc(-n2sccc2=O)cc1", "observed_property": "pIC50", "result": "< 4.00"}
{"smiles": "O=c1ccsn1-c1cccc(Cl)c1", "observed_property": "pIC50", "result": 4.00}
{"smiles": "CCOC(=O)c1cc2cc(-n3sccc3=O)ccc2o1", "observed_property": "pIC50", "result": "< 4.00"}
{"smiles": "O=c1ccsn1-c1cccc([N+](=O)[O-])c1", "observed_property": "pIC50", "result": "< 4.00"}
{"smiles": "O=c1ccsn1-c1ccccc1F", "observed_property": "pIC50", "result": "< 3.40"}
{"smiles": "O=C(c1ccc(-n2sccc2=O)cc1)N1CCOCC1", "observed_property": "pIC50", "result": "< 4.00"}
{"smiles": "CC(=O)OCc1cccc(-n2sccc2=O)c1", "observed_property": "pIC50", "result": "< 3.40"}
{"smiles": "CC(C)(C)OC(=O)c1ccc(-n2sccc2=O)cc1", "observed_property": "pIC50", "result": "< 4.00"}
{"smiles": "O=c1ccsn1-c1cccc(CO)c1", "observed_property": "pIC50", "result": "< 3.40"}
{"smiles": "N#Cc1cccc(-n2sccc2=O)c1", "observed_property": "pIC50", "result": "< 4.00"}
{"smiles": "O=c1ccsn1-c1c(F)cccc1F", "observed_property": "pIC50", "result": 4.07}
